Value source: patent US20250215016A1

ASSAYED_SYSTEM: human α5β3γ2 receptor (α5-GABAA receptor) (Homo sapiens (Human), UniProt P18507+P31644)
EXPERIMENT_SUMMARY: Radioligand (3H-flunitrazepam) competition binding assay, BZD site
CONDITION_DETAILS: 3H-flunitrazepam 1 nM; HEK293 membranes expressing human α5β3γ2
REPORTED_PROPERTY: Ki
In your response, put the unit directly after the numeric value.

smiles_structure=CCN1CCn2c(nnc2-c2ccc(OCc3c(-c4ccc(F)cc4)noc3C)nc2)C1=O assayed_system="human α5β3γ2 receptor (α5-GABAA receptor) (Homo sapiens (Human), UniProt P18507+P31644)" value_measured="12.5 nM"
smiles_structure=Cc1onc(-c2ccc(F)cc2)c1COc1ccc(-c2nnc3n2CCCOC3)cn1 assayed_system="human α5β3γ2 receptor (α5-GABAA receptor) (Homo sapiens (Human), UniProt P18507+P31644)" value_measured="11.2 nM"

# ---- query compound ----
// fetch Ki given entry CC(=O)N1CCn2c(nnc2-c2ccc(OCc3c(-c4ccc(F)cc4)noc3C)nc2)C1
9.86 nM

---

ASSAYED_SYSTEM: human α2β3γ2 receptor (α2-GABAA receptor) (Homo sapiens (Human), UniProt P18507+P47869)
EXPERIMENT_SUMMARY: Radioligand (3H-flunitrazepam) competition binding assay, BZD site; α2 vs α5 binding selectivity
CONDITION_DETAILS: ratio of Ki at α2β3γ2 to Ki at α5β3γ2
REPORTED_PROPERTY: Selectivity α2 ki/α5 ki (folds)
Field format: number, assumed folds, no unit text.

molecule="Cc1onc(-c2ccc(F)cc2)c1COc1ccc(-c2nnc3n2CCCOC3)nn1 [Compound 21]" assayed_system="human α2β3γ2 receptor (α2-GABAA receptor) (Homo sapiens (Human), UniProt P18507+P47869)" value_measured=51
molecule="COc1ncc(-c2ccc(OCc3c(C)nnn3-c3ccc(C(F)F)cc3)nn2)cn1 [WO2020016443A1, Example 3, reference compound]" assayed_system="human α2β3γ2 receptor (α2-GABAA receptor) (Homo sapiens (Human), UniProt P18507+P47869)" value_measured=14.5
molecule="Cc1onc(-c2ccc(F)cc2)c1COc1cnc(-c2nnc3n2CCOCC3)cn1 [Compound 33]" assayed_system="human α2β3γ2 receptor (α2-GABAA receptor) (Homo sapiens (Human), UniProt P18507+P47869)" value_measured=86.7
molecule="Cc1onc(-c2ccc(F)cc2)c1COc1cnc(-c2nnc3n2CCCOC3)cn1 [Compound 24]" assayed_system="human α2β3γ2 receptor (α2-GABAA receptor) (Homo sapiens (Human), UniProt P18507+P47869)" value_measured=39.2

# ---- query molecule ----
Send back human α2β3γ2 receptor (α2-GABAA receptor) (Homo sapiens (Human), UniProt P18507+P47869) Selectivity α2 ki/α5 ki of Cc1onc(-c2ccc(F)cc2)c1COc1ccc(-c2nnc3n2CCCOC3)cn1 [Compound 20] only.
109

---

ASSAYED_SYSTEM: α5-GABAA receptor (Homo sapiens (Human), UniProt P18507+P31644)
EXPERIMENT_SUMMARY: Whole-cell patch clamp electrophysiology, inverse regulation activity in α5β3γ2-HEK293 cells
Assay type: cell-based
CONDITION_DETAILS: compound 100 nM; GABA 0.05-0.06 μM (about EC7-8); clamped at −60 mV; read-out: Inverse regulation efficiency to α5-GABAA receptor
Description: α, β and γ subunits are essential for the formation of a complete functional GABAA receptor. […] The inverse regulation activity of the test drugs on α5-GABAA receptor was detected by an electrophysiological method. […] Electrophysiological signal acquisition were performed by using EPC 10 amplifier and PatchMaster software (HEKA) or Axon 700 B amplifier and Clampex software (AXON). […] At this time, the current (Igaba) caused by GABA can be detected. […]
Cut-off 40% on inhibition at 0.1 µM, inclusive. At or above means t; below means f.

smiles_structure=Cc1onc(-c2ccc(F)cc2)c1COc1ccc(-c2nnc3n2CCS(=O)(=O)C3)cn1 assigned_label=f
smiles_structure=Cc1onc(-c2ccc(F)cc2)c1COc1cnc(-c2nnc3n2CCN(C)C3)cn1 assigned_label=f
smiles_structure=Cc1onc(-c2ccc(F)cc2)c1COc1cnc(-c2cnn3c2CCC3)cn1 assigned_label=f
smiles_structure=Cc1onc(-c2ccc(F)cc2)c1COc1ccc(-c2cc3n(c(=O)n2)C[C@]24CO[C@H](CN32)C4)cn1 assigned_label=t
smiles_structure=Cc1onc(-c2ccc(F)cc2)c1COc1ccc(-c2nnn3c2COCC3)nn1 assigned_label=t

Is reported inhibition at 0.1 µM greater than or equal to 40% here: Cc1onc(-c2ccc(F)cc2)c1COc1ccc(-c2nnc3n2CCCO3)cn1
t

---

pKi listing for selected compounds.
ASSAYED_SYSTEM: human α5β3γ2 receptor (α5-GABAA receptor) (Homo sapiens (Human), UniProt P18507+P31644)
EXPERIMENT_SUMMARY: Radioligand (3H-flunitrazepam) competition binding assay, BZD site
CONDITION_DETAILS: 3H-flunitrazepam 1 nM; HEK293 membranes expressing human α5β3γ2
The read-out pKi is expressed as -log10 of concentration in moles per litre.

Examples with answers:
compound=Cc1onc(-c2ccc(F)cc2)c1COc1ccc(-c2cc3n(c(=O)n2)CCN3C)cn1 value_measured=9.00
compound=Cc1cn2c(n1)CN(c1cnc(OCc3c(-c4ccc(F)cc4)noc3C)cn1)CC2 value_measured=8.51

Send back human α5β3γ2 receptor (α5-GABAA receptor) (Homo sapiens (Human), UniProt P18507+P31644) pKi of Cc1onc(-c2ccc(F)cc2)c1COc1ccc(N2CCN3CCOC[C@@H]3C2)nn1 only.
8.42

Send back human α5β3γ2 receptor (α5-GABAA receptor) (Homo sapiens (Human), UniProt P18507+P31644) pKi of Cc1onc(-c2ccc(F)cc2)c1COc1ccc(-c2nnc3n2CCOC3)cn1 only.
8.59

Send back human α5β3γ2 receptor (α5-GABAA receptor) (Homo sapiens (Human), UniProt P18507+P31644) pKi of Cc1onc(-c2ccc(F)cc2)c1COc1cnc(-c2nnc3n2CCCOC3)cn1 only.
8.17

Send back human α5β3γ2 receptor (α5-GABAA receptor) (Homo sapiens (Human), UniProt P18507+P31644) pKi of Cc1onc(-c2ccc(F)cc2)c1COc1cnc(N2CCN3CCNC(=O)[C@@H]3C2)cn1 only.
6.99

Send back human α5β3γ2 receptor (α5-GABAA receptor) (Homo sapiens (Human), UniProt P18507+P31644) pKi of Cc1onc(-c2ccc(F)cc2)c1COc1ccc(-c2nnc3n2CCN(C)C3=O)nn1 only.
8.60

---

ASSAYED_SYSTEM: human α5β3γ2 receptor (α5-GABAA receptor) (Homo sapiens (Human), UniProt P18507+P31644)
EXPERIMENT_SUMMARY: Radioligand (3H-flunitrazepam) competition binding assay, BZD site
CONDITION_DETAILS: 3H-flunitrazepam 1 nM; HEK293 membranes expressing human α5β3γ2
REPORTED_PROPERTY: pKi
The read-out pKi is expressed as -log10 of concentration in moles per litre.

molecule=Cc1onc(-c2ccc(F)cc2)c1COc1ccc(N2CCn3ccnc3C2=O)nn1 value_measured=8.27

// fetch pKi given entry Cc1onc(-c2ccc(F)cc2)c1COc1ccc(N2CCn3c(C)nnc3C2=O)nn1
8.47

// fetch pKi given entry Cc1onc(-c2ccc(F)cc2)c1COc1cnc(N2CCN3CCOC[C@@H]3C2)cn1
7.66

// fetch pKi given entry Cc1onc(-c2ccc(F)cc2)c1COc1ccc(N2CCn3ccnc3C2)nn1
8.84

// fetch pKi given entry Cc1onc(-c2ccc(F)cc2)c1COc1ccc(N2CCN3CCNC(=O)C3C2)nn1 (centres unmarked)
8.49
